Measured MBC, listed per entry for reference.
Test system: Staphylococcus aureus
Experiment: Antibacterial activity against Staphylococcus aureus clinical isolate incubated for 18 to 24 hrs
Format: functional
Conditions: time 18-24 hrs
Write the number in µg/mL without appending the unit.

Below are worked cases with known answers.
Cc1ccccc1-c1c[n+](C)c(-c2ccc(C(C)(C)C)cc2)cc1/C=C/c1ccc(C(C)(C)C)cc1.[I-] = 0.5
CN(C)c1ccc(/C=C/c2cc(-c3ccc(C(C)(C)C)cc3)[n+](C)cc2-c2ccccc2)cc1.[I-] = 1
C[n+]1cc(-c2ccccc2)c(/C=C/c2ccc(N3CCCC3)cc2)cc1-c1ccc(C(C)(C)C)cc1.[I-] = 0.5

Let us move to another entry and its MBC.
[Q] Any idea what MBC was measured for Cc1ccccc1-c1c[n+](C)c(-c2ccc(C(C)(C)C)cc2)cc1/C=C/c1ccc(N(C)C)cc1.[I-] ?
[A] 1
